# SYSTEM NAME: FGFR3 (SEQ ID NO: 5, amino acids 449-759) (Homo sapiens (Human))
# MEASUREMENT DESCRIPTION: LC/MS FGFR3 kobs assay (covalent protein modification)
# Type: binding
# COND: 500 nM FGFR3, 3 μM compound
METRIC NAME: FGFR3 Enz kobs (min⁻¹)

MOLECULE	VALUE MEASURED
C=CC(=O)N1CC(C(=O)N2C[C@@H]3C[C@H]2CN3c2ccc(-c3cc(OC)c4c(C#N)cnn4c3)cn2)C1	0.01259
C=CC(=O)N1CC(C(=O)N2CC3CC(C2)N3c2ccc(-c3cc(OC)c4c(C#N)cnn4c3)cn2)C1	0.00147

1: C=CC(=O)N1CC(C(=O)N2CCC(n3ncc(-c4cc(OC)c5c(C#N)cnn5c4)c3C)CC2)C1(C)C (stereo not shown)
2: C=CC(=O)N1CC(C(=O)N2CCC(n3cc(-c4cc(OCC(C)C)c5c(C#N)cnn5c4)cn3)CC2)C1
Qu. // pick larger FGFR3 Enz kobs from pair: 1 vs 2 Choose, then provide that item's label.
Ans. 2

---

# SYSTEM NAME: recombinant human FGFR3 (amino acids R397-T806) (Homo sapiens (Human))
# Sequence (P22607 397-806): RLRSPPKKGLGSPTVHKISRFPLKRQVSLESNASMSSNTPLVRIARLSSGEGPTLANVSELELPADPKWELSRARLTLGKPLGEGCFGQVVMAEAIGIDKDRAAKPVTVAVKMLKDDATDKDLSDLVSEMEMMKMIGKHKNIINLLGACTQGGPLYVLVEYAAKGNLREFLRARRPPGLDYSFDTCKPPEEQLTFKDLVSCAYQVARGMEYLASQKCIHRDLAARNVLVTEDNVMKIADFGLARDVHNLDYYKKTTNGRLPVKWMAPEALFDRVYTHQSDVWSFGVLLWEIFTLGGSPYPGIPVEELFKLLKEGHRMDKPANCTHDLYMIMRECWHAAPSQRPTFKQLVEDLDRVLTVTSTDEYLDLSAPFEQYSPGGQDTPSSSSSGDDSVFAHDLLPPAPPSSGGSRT
# MEASUREMENT DESCRIPTION: FGFR3 enzyme activity assay (LanthaScreen TR-FRET)
# COND: 25 μM ATP, 10 min incubation at 22° C., average of multiple determinations if made, read-out: FGFR3 Enz FRET IC50
METRIC NAME: IC50 (nM)

COMPOUND STRING	SYSTEM NAME	IC50, nM
C=CC(=O)N1CC(CN2C[C@H]3C[C@@H]2CN3c2ccc(-c3cc(OC)c4c(C#N)cnn4c3)cn2)C1	recombinant human FGFR3 (amino acids R397-T806) (Homo sapiens (Human))	10

I: C=CC(=O)N1CCN(C(=O)N2CCC(n3cc(-c4cc(OC)c5c(C#N)cnn5c4)cn3)CC2)C[C@@H]1CC#N
II: C=CC(=O)N1CC(C(=O)N2CC(n3cc(-c4cc(OC)c5c(C#N)cnn5c4)cn3)C2)C1
Qu. // pick larger IC50 from pair: I vs II Choose, then provide that item's label.
Ans. II

---

# SYSTEM NAME: HEK-293 cells transfected with dox-inducible human wild type FGFR3 (Homo sapiens (Human), UniProt P22607)
# Sequence (P22607 23-806): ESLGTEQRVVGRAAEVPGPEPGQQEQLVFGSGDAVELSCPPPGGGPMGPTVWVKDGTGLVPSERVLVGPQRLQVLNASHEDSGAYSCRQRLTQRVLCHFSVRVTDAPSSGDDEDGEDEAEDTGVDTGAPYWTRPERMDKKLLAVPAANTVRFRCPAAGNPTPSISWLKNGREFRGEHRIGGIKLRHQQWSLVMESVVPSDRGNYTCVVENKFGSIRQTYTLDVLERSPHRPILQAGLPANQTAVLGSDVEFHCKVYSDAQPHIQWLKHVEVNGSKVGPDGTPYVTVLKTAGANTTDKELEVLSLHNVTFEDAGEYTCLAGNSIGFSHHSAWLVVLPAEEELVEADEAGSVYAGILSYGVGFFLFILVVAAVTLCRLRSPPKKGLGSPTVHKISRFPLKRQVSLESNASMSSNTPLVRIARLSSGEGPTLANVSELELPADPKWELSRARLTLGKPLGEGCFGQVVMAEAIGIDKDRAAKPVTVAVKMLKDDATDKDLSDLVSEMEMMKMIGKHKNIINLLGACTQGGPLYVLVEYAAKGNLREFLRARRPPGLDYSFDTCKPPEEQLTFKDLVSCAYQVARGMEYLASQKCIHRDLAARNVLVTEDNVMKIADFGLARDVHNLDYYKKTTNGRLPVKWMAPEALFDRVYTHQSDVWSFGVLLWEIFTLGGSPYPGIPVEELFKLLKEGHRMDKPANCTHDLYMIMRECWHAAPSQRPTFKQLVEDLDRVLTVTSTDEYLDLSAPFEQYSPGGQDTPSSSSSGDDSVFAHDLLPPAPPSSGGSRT
# MEASUREMENT DESCRIPTION: FGFR3 pERK cell assay
# Format: cell-based
# COND: HEK-293 dox-inducible FGFR3, 1 hour compound, 100 ng/ml FGF-acidic; maximum concentration 5 μM
METRIC NAME: IC50 (nM)

COMPOUND STRING	METRIC NAME	VALUE MEASURED
COc1cc(-c2cnn(C3CCN(C(=O)C4CN(C(=O)C#CCO)C4)CC3)c2)cn2ncc(C#N)c12	IC50	236

A: COc1cc(-c2cnn(C3CN(C(=O)C4(F)CN(C(=O)/C=C/CN(C)C)C4)C3)c2C)cn2ncc(C#N)c12
B: COc1cc(-c2nnn(C3CCN(C(=O)C4(F)CN(C(=O)/C=C/CN(C)C)C4)CC3)c2C)cn2ncc(C#N)c12
Qu. Field: lower IC50 | Options: A / B Choose, then provide that item's label.
Ans. B
(B: 188 nM, A: 481 nM)

---

# SYSTEM NAME: HEK-293 cells transfected with dox-inducible human wild type FGFR1 (Homo sapiens (Human), UniProt P11362)
# Sequence (P11362 22-822): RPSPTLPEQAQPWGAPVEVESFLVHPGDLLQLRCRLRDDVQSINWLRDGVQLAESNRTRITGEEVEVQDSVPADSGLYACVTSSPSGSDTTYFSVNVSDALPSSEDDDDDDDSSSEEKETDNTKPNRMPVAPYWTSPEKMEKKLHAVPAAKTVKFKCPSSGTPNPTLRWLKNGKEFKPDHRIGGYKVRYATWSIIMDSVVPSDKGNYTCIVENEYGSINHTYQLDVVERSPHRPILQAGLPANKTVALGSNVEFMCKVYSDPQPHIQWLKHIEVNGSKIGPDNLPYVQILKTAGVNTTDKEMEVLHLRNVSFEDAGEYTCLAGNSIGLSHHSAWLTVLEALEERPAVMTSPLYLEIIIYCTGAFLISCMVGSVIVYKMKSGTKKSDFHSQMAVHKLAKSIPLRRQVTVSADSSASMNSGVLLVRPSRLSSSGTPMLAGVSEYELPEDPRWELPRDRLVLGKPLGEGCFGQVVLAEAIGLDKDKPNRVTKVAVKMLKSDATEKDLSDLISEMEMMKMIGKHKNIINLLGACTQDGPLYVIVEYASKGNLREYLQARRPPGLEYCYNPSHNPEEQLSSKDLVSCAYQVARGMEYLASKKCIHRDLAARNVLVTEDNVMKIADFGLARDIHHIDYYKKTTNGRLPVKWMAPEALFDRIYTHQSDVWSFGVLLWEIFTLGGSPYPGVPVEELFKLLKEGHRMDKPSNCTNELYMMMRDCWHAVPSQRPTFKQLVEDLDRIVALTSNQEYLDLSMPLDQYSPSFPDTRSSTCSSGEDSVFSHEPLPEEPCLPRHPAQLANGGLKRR
# MEASUREMENT DESCRIPTION: FGFR1 pERK cell assay
# Type: cell-based
# COND: HEK-293 dox-inducible FGFR1, 1 hour compound, 100 ng/ml FGF-acidic; maximum concentration 5 μM
pIC50: −log10 of the molar value.
METRIC NAME: pIC50

COMPOUND	pIC50
C=CC(=O)N1CC(C)(CN2CCC(n3ncc(-c4cc(OC)c5c(C#N)cnn5c4)c3C)CC2)C1	5.65

1: C=CC(=O)N1CC(C#N)(C(=O)N2CCC(n3cc(-c4cc(OC)c5c(C#N)cnn5c4)cn3)CC2)C1
2: C=CC(=O)N1CC(F)(C(=O)N2CCC(n3cc(-c4cc(OC)c5c(Cl)cnn5c4)cn3)CC2)C1
3: COc1cc(-c2cnn(C3CCN(C(=O)C4CN(C(=O)/C=C/CN5CC[C@@H](F)C5)C4)CC3)c2)cn2ncc(C#N)c12
4: C=CC(=O)N1CC(C(=O)N2C[C@H]3C[C@@H]2CN3c2ccc(-c3cc(OC)c4c(C#N)cnn4c3)cn2)C1
5: C=CS(=O)(=O)N[C@H]1C[C@H](C(=O)N2CCC(n3cc(-c4cc(OC)c5c(C#N)cnn5c4)cn3)CC2)C1
Qu. Kindly order the items shown according to pIC50, from the highest value down. Sort the labels as requested; that list is your answer.
Ans. 1, 2, 5, 4, 3
(1: 7.28, 2: 6.77, 5: 6.40, 4: 5.87, 3: 5.34)

1: C=CC(=O)N1CC(F)(C(=O)N2CCN(c3ccc(-c4cc(OC)c5c(C#N)cnn5c4)cn3)CC2)C1
2: C=CS(=O)(=O)N1CCC(C(=O)N2CCC(n3cc(-c4cc(OC)c5c(C#N)cnn5c4)cn3)CC2)CC1
Qu. Field: lower pIC50 | Options: 1 / 2 Choose, then provide that item's label.
Ans. 1

P: C=CC(=O)N1CC(C(=O)N2CCC(n3ncc(-c4cc(OC)c5c(C#N)cnn5c4)c3C)CC2)C1(C)C (stereo not drawn)
Q: COc1cc(-c2cnn(C3CCN(CC4(OC)CN(C(=O)/C=C/CN(C)C)C4)CC3)c2C)cn2ncc(Cl)c12
Qu. // pick larger pIC50 from pair: P vs Q Choose, then provide that item's label.
Ans. Q
(Q: 5.89, P: 5.63)

1: COc1cc(-c2cnn(C3CCN(C(=O)C4CN(C(=O)C#CCO)C4)CC3)c2)cn2ncc(C#N)c12
2: COc1cc(-c2cnn(C3CCN(C(=O)C4CN(C(=O)/C=C/CN5CC[C@H](F)C5)C4)CC3)c2)cn2ncc(C#N)c12
3: C=CC(=O)N1CC(CN2CCC(n3ncc(-c4cc(OC)c5c(Cl)cnn5c4)c3C)CC2)C1(C)C (stereo not drawn)
4: C=CC(=O)N1CC(C(=O)N2CCC3(CC2)CN(c2ccc(-c4cc(OC)c5c(C#N)cnn5c4)cn2)C3)C1
Qu. Order the records, beginning with the lowest pIC50 and ending with the highest. Sort the labels as requested; that list is your answer.
Ans. 2, 1, 3, 4

---

# SYSTEM NAME: FGFR1 (SEQ ID NO: 1, amino acids 458-765) (Homo sapiens (Human), UniProt P11362)
# Sequence (P11362 458-765): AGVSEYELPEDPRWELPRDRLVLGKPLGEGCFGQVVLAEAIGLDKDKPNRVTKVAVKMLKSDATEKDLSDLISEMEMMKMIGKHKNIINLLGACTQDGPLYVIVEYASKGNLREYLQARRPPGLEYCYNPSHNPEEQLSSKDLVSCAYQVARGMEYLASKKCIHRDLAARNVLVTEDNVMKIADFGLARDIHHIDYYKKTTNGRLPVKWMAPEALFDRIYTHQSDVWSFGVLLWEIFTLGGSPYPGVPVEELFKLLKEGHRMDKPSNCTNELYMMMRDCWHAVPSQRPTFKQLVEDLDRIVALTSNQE
# MEASUREMENT DESCRIPTION: LC/MS FGFR1 kobs assay (covalent protein modification)
# Assay type: binding
# COND: 500 nM FGFR1, 3 μM compound
METRIC NAME: FGFR1 Enz kobs (min⁻¹)

COMPOUND STRING	FGFR1 Enz kobs / min⁻¹
C=CC(=O)N1CC(C(=O)N2CCC(n3cc(-c4cc(OCC(C)C)c5c(C#N)cnn5c4)cn3)CC2)C1	0.00134

1: C=CC(=O)N1CCN(c2cccc(-n3cc(-c4cc(OC)c5c(C#N)cnn5c4)cn3)c2)CC1
2: C=CC(=O)N1CC2(CCC(C(=O)N3CCC(n4cc(-c5cc(OC)c6c(C#N)cnn6c5)cn4)CC3)CC2)C1
Qu. // pick larger FGFR1 Enz kobs from pair: 1 vs 2 Choose, then provide that item's label.
Ans. 2
(2: 0.00085 min⁻¹, 1: 0.00017 min⁻¹)

a: COc1cc(-c2cnn(C3CCN(CC4(OC)CN(C(=O)/C=C/CN(C)C)C4)CC3)c2C)cn2ncc(Cl)c12
b: C=CC(=O)N1CC2(CCN(C(=O)N3CCC(n4cc(-c5cc(OC)c6c(C#N)cnn6c5)cn4)CC3)CC2)C1
Qu. Field: lower FGFR1 Enz kobs | Options: a / b Choose, then provide that item's label.
Ans. b
(b: 0.00093 min⁻¹, a: 0.00434 min⁻¹)

1: COc1cc(-c2cnn(C3CCN(C(=O)C4CN(C(=O)C#CCO)C4)CC3)c2)cn2ncc(C#N)c12
2: C=CC(=O)Nc1cccc(C(=O)N2CC[C@H](n3cc(-c4cc(OC)c5c(C#N)cnn5c4)cn3)C2)c1
Qu. Field: lower FGFR1 Enz kobs | Options: 1 / 2 Choose, then provide that item's label.
Ans. 2
(2: 0.00146 min⁻¹, 1: 0.01248 min⁻¹)

---

# SYSTEM NAME: HEK-293 cells transfected with dox-inducible human wild type FGFR2 (Homo sapiens (Human))
# Sequence (P21802 22-821): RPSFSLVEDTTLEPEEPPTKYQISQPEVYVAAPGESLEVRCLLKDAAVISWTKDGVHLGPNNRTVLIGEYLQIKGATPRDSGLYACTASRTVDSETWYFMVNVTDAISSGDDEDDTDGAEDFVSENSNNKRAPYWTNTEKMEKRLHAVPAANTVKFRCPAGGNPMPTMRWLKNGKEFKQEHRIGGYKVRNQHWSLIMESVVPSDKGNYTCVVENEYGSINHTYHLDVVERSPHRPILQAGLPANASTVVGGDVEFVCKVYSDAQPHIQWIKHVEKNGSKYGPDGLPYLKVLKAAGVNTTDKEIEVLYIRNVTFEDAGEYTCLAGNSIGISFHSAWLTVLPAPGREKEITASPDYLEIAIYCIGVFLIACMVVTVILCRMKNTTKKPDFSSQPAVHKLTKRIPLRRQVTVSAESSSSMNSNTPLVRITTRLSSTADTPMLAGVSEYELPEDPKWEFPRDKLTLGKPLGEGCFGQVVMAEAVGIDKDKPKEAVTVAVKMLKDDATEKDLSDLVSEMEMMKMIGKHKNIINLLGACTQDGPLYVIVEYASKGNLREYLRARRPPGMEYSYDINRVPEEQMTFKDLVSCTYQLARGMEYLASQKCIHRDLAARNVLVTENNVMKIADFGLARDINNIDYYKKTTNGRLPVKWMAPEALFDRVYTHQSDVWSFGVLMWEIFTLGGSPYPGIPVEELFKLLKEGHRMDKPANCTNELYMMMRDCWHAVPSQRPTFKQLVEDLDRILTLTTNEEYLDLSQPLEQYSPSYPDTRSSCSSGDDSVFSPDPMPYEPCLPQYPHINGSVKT
# MEASUREMENT DESCRIPTION: FGFR2 pFGFR cell assay (ELISA)
# COND: HEK-293 dox-inducible FGFR2, 1 hour compound, 30 ng/ml FGF-acidic
pIC50: −log10 of the molar value.
METRIC NAME: pIC50

P: COc1cc(-c2cnn(C3CCN(C(=O)C4(F)CN(C(=O)/C=C/CN(C)C)C4)CC3)c2C)cn2ncc(Cl)c12
Q: C=CC(=O)N1CC(C(=O)N2CCC(n3cc(-c4cc(OC)c5c(C#N)cnn5c4)cn3)CC2)C1(C)C (centres unmarked)
Qu. // pick larger pIC50 from pair: P vs Q Choose, then provide that item's label.
Ans. Q
(Q: 7.10, P: 6.77)

A: C=CC(=O)N1CC(CN2C[C@H]3C[C@@H]2CN3c2ccc(-c3cc(OC)c4c(C#N)cnn4c3)cn2)C1
B: C=CC(=O)N1CC(C(=O)N2C[C@@H]3C[C@H]2CN3c2ccc(-c3cc(OC)c4c(C#N)cnn4c3)cn2)C1
Qu. Field: lower pIC50 | Options: A / B Choose, then provide that item's label.
Ans. B
